Test system: SR leukemia
Test: NCI-60 one-dose screen, 48 h
Conditions: 10 µM unless noted
Method: Growth inhibition of the SR human tumor cell line is measured as a screen for anti-cancer activity. Cells are grown in 96 well plates and exposed to the test compound for 48 hours. Compounds are tested at a single concentration, which is 10^-5 M for most compounds. The reported endpoint is percent growth (GI% or GIPRCNT), where numbers from 0 - 100% represent growth inhibition, and numbers from -100% - 0 represent cell death. For example, a value of 40 represents 60% growth inhibition. […]
Compounds without any hit were thinned out: in the full panel of roughly 83,000, 20% have a hit. Active and inactive are the calls of the source. The calls were made as follows: active = growth percent below 10; inactive = the rest.
Outcome (select one): active, inactive

Assay result, entry COc1ccc(/C=N/Nc2nc(N/N=C/c3ccc(OC)cc3O)nc(N3CCOCC3)n2)c(O)c1 — outcome? inactive

Assay result, entry CCOC(=O)c1c(NCC(=O)Nc2cccc(Cl)c2)sc2c1CCCC2 — outcome? inactive

Assay result, entry CC(=O)Nc1nc2c(s1)C1=CC[C@H]3[C@@H]4CC[C@H](C(C)=O)[C@@]4(C)CC[C@@H]3[C@@]1(C)CC2 — outcome? inactive

Assay result, entry O=C(CCCCCCN1CC(=O)N2[C@@H](c3ccc(Cl)c(F)c3)c3[nH]c4ccccc4c3C[C@H]2C1=O)NO — outcome? inactive

Assay result, entry Cc1ccc(NC(=O)c2ccc(CN3CCN(C)CC3)c(I)c2)cc1Oc1ccc(-c2[nH]nc3ncnc(N)c23)cc1 — outcome? active

Assay result, entry C=CCn1c(SCC(=O)Nc2cccc(C(=O)/C=C/c3ccccc3Cl)c2)nc2ccccc2c1=O — outcome? inactive

Assay result, entry C/C=C/C=C1\C[C@H]2CO[C@H](O2)C1=O — outcome? inactive

Assay result, entry O=C(/C=C1\C=CN(CCCCF)c2ccccc21)n1ccc2ccccc21 — outcome? inactive

Assay result, entry CCCCOc1ccc(S(=O)(=O)N2CCN(c3nccc(N4CCOCC4)n3)CC2)cc1 — outcome? inactive

Assay result, entry CN(c1ccc(F)cc1)S(=O)(=O)c1ccc(-c2cnc(C3CC3)o2)cc1 — outcome? inactive

Assay result, entry NC(=S)N/N=C(/C=C/c1cn(-c2ccccc2)nc1-c1ccc(Cl)cc1)c1cc2ccccc2oc1=O — outcome? inactive

Assay result, entry CC1OC(O[C@@H]2[C@H](O)C(CO)OC(O[C@H]3COC(O[C@H]4CC[C@]5(C)[C@H]6CC[C@]78OC[C@@]9(CC[C@](C)(C=O)C[C@H]97)C(=O)C[C@@]8(C)[C@]6(C)CC[C@H]5C4(C)C)[C@@H](O)[C@@H]3O)[C@H]2OC2OC[C@@H](O)[C@@H](O)[C@@H]2O)[C@@H](O)[C@@H](O)[C@H]1O (some centres undefined) — outcome? active

Assay result, entry CSc1ccc(/C(=N/N=C(N)N)c2ccccc2)cc1 — outcome? inactive

Assay result, entry ClC(Cl)c1nc(-c2cccs2)n2nc(-c3ccccc3)cc2n1 — outcome? inactive

Assay result, entry CC(=O)NC(C)(C)C(=O)N[C@@H](C)C(=O)NC(C)(C)C(=O)N[C@@H](C)C(=O)NC(C)(C)C(=O)N[C@@H](C)C(=O)N[C@@H](CCC(N)=O)C(=O)NC(C)(C)C(=O)N[C@H](C(=O)NC(C)(C)C(=O)NCC(=O)N[C@@H](CC(C)C)C(=O)NC(C)(C)C(=O)N1CCC[C@H]1C(=O)N[C@H](C(=O)NC(C)(C)C(=O)NC(C)(C)C(=O)N[C@@H](CCC(N)=O)C(=O)N[C@@H](CCC(N)=O)C(=O)N[C@H](CO)CC1CCCCC1)C(C)C)C(C)C — outcome? inactive

Assay result, entry N/C(=N\OC(=O)CSc1nc2ccccc2s1)c1ccc(Cl)cc1 — outcome? inactive

Assay result, entry COc1ccc(S(=O)(=O)NCCCNc2nccc(-n3cnc4ccccc43)n2)cc1 — outcome? inactive

Assay result, entry CN1C(=O)N(C)C2Nn3c(s/c(=C\c4ccccn4)c3=O)=NC21 (centres undefined) — outcome? inactive

Assay result, entry C#C[C@]1(O)CC[C@H]2[C@@H]3CC=C4c5sc(Nc6nc(C)cc(OC)n6)nc5CC[C@]4(C)[C@H]3CC[C@@]21C — outcome? inactive

Assay result, entry O=C(CSc1nnc(-c2cccs2)n1-c1ccccc1)Nc1ccc(F)cc1 — outcome? inactive

Assay result, entry NNC(=O)c1sc2nc(-c3cnccn3)cc(-c3cccs3)c2c1N — outcome? inactive

Assay result, entry COc1ccc(CN2C(=O)/C(=C/c3nc(CO)cs3)SC2=S)cc1 — outcome? inactive

Assay result, entry O=C1[C@H]2Cc3c([nH]c4ccccc34)[C@@H](c3c(Cl)cccc3Cl)N2C(=O)CN1C1CCN(Cc2ccccc2)CC1 — outcome? inactive

Assay result, entry C=C(C)C(=O)O[C@H]1C[C@@]2(C)OC(=CC2=O)/C(CO)=C\[C@H]2OC(=O)C(=C)[C@H]12 — outcome? active

* * *

Please go through the items and note down their growth.
Tested on: OVCAR-8 ovarian
Assay: NCI-60 one-dose screen, 48 h (100 = growth as untreated, 0 = no growth, -100 = all killed)
Settings: 10 µM unless noted
The panel holds about 83,000 compounds, 20% with a hit somewhere; the sample as a whole holds those more often. Active and inactive are the calls of the source. The calls were made as follows: active = growth percent below 10; inactive = the rest.

For ClC(Cl)c1nc(-c2cccs2)n2nc(-c3ccccc3)cc2n1 the molecule record lists growth as 12% (inactive)

For O=C1Nc2ccc(Cl)cc2/C1=C/c1ccc(OCc2ccc(F)cc2)cc1 the molecule record lists growth as 98.5% (inactive)

For COc1cc(C(=O)C[n+]2ccc3ccccc3c2)cc(OC)c1OC the molecule record lists growth as 100% (inactive)

For O=C(COc1ccc(C2SCC(=O)N2c2ccccc2)cc1)c1ccccc1 (stereo unspecified) the molecule record lists growth as 94.1% (inactive)

For COc1cc(/C=N/n2cnc3oc(-c4ccccc4)cc3c2=N)cc(CN2CCN(C)CC2)c1O the molecule record lists growth as 93.9% (inactive)

For CC(=O)NC(C)(C)C(=O)N1CCC[C@H]1C(=O)NC(C)(C)C(=O)N[C@@H](C)C(=O)NC(C)(C)C(=O)N[C@@H](C)C(=O)N[C@@H](CCC(N)=O)C(=O)NC(C)(C)C(=O)N[C@H](C(=O)NC(C)(C)C(=O)NCC(=O)N[C@@H](CC(C)C)C(=O)NC(C)(C)C(=O)N1CCC[C@H]1C(=O)N[C@H](C(=O)NC(C)(C)C(=O)NC(C)(C)C(=O)N[C@@H](CCC(N)=O)C(=O)N[C@@H](CCC(N)=O)C(=O)N[C@H](CO)Cc1ccccc1)C(C)C)C(C)C the molecule record lists growth as 71.8% [4.25 µM] (inactive)

For C=C(C)[C@@H]1CC[C@]2(C)[C@H](CC=C3[C@@H]4CC(C)(C)CC[C@]4(C(=O)NCC#CCN4CCN(C)CC4)CC[C@]32C)[C@@]1(C)CCC#N the molecule record lists growth as 85.9% (inactive)

For CCOC(=O)Nc1ccc(-c2nc(-c3cccc(O)c3)c(-c3ccnc(Br)c3)[nH]2)cc1 the molecule record lists growth as 10.7% (inactive)

For CCOC(=O)Nc1cccc(-n2cnc3cc(-c4ccc(O)cc4)ccc32)c1 the molecule record lists growth as 21.8% (inactive)

For COc1cc2oc(-c3cccc(NC(=O)c4cc(NC(=O)[C@H](C)NC(=O)OC(C)(C)C)ccc4C)c3)cc(=O)c2c(OC)c1OC the molecule record lists growth as 42.6% (inactive)

For COCCOc1ccc(-c2csc(NC(=O)CN3CCN(CCO)CC3)n2)cc1NS(=O)(=O)c1cccc2c(N(C)C)cccc12 the molecule record lists growth as 81.2% (inactive)

* * *

Test system: U251 CNS
Test: NCI-60 one-dose screen, 48 h
Conditions: 10 µM unless noted
About 83,000 compounds went through this panel and 20% of them were active in at least one assay; those are over-represented in the sample as a whole. Calls of active or inactive are those of the source. How the source made its calls: active means growth percent below 10; inactive means the rest.
Outcome (select one): YES (active), NO (inactive)

Assay result, entry COc1ccc(/C=N/Nc2nc(N/N=C/c3ccc(OC)cc3O)nc(N3CCOCC3)n2)c(O)c1 — outcome? NO

Assay result, entry O=C(/C=C/Nc1ccc(S(=O)(=O)O)cc1)c1ccc(F)cc1 — outcome? NO

Assay result, entry Oc1ccc(-c2nnc(SCc3ccc(O)c4ncccc34)o2)cc1 — outcome? NO

Assay result, entry COc1ccc(C2C(C#N)=C(N)Oc3c2sc2ccc(C)cc32)cc1 (stereo not given) — outcome? NO

Assay result, entry CCOC(=O)c1c(NCC(=O)Nc2cccc(Cl)c2)sc2c1CCCC2 — outcome? NO

Assay result, entry COc1ccc([C@H]2[C@H](O)C(=O)N2c2cc(OC)c(OC)c(OC)c2)cc1 — outcome? YES

Assay result, entry COc1cc(CNC(=O)Cc2ccccc2[N+](=O)[O-])ccc1OCC(=O)NO — outcome? NO

Assay result, entry COc1cc2c3c(n(CCCNC4CCCCC4)c(=O)c2cc1OC)-c1cc2c(cc1C3=O)OCO2 — outcome? YES

Assay result, entry C/C(=C(/c1ccc(O)cc1)c1ccc(OCCN(C)C)cc1)c1ccc(Cl)cc1 — outcome? NO

Assay result, entry CC(C)=CCc1c(O)c(CC=C(C)C)c2c(c1O)C(=O)C1=C[C@@H]3C[C@H]4C(C)(C)O[C@@](C/C=C(\C)C(=O)O)(C3=O)[C@@]14O2 — outcome? YES

Assay result, entry CCCCSc1nnc(-c2ccc(-c3ccc(Cl)cc3)nc2C)o1 — outcome? NO

Assay result, entry O=C(/C=C/c1cn(-c2ccccc2)nc1-c1ccc(Cl)cc1)c1cc2ccccc2oc1=O — outcome? NO

Assay result, entry C#C[C@]1(O)CC[C@H]2[C@@H]3CC=C4c5sc(Nc6ccncc6)nc5CC[C@]4(C)[C@H]3CC[C@@]21C — outcome? YES

Assay result, entry Cn1cc2c(c1)-c1c(sc3nc(-c4ccc(NC(=O)Nc5cc(C(C)(C)C)on5)cc4)cn13)CC2 — outcome? NO

Assay result, entry O=C1c2c(c3c4cccnc4[nH]c3c3ccc4ccccc4c23)C(=O)N1CCN1CCCCC1 — outcome? NO

Assay result, entry Oc1ccc(CSc2nnc(-c3ccc(Oc4ccccc4)cc3)o2)c2cccnc12 — outcome? YES

Assay result, entry Cc1cc(NS(=O)(=O)c2ccc(-c3cnc(C4CC4)o3)cc2)ccc1I — outcome? NO

Assay result, entry Cc1cc(=O)n2nc(-c3c[nH]c4ccccc34)sc2n1 — outcome? NO

Assay result, entry O=C1c2c(c3c4cc(O)ccc4oc3c3[nH]c4ccccc4c23)C(=O)N1O — outcome? YES

Assay result, entry COc1ccc2c(c1)oc1c3[nH]c4ccccc4c3c3c(c21)C(=O)N(O)C3=O — outcome? NO

Assay result, entry CS(=O)(=O)c1ccc2c(c1)c1c(n2S(=O)(=O)c2ccc(Cl)cc2)CCCC1 — outcome? NO

Assay result, entry CN(c1ccc(Cl)cc1)S(=O)(=O)c1ccc(-c2cnc(C3CC3)o2)cc1 — outcome? NO

Assay result, entry O=C(Cn1cc(CN2C(=O)c3ccc([N+](=O)[O-])cc3C2=O)nn1)Nc1ccc(F)cc1Cl — outcome? NO

Assay result, entry O=C(NNc1nc2cc(F)cc(F)c2n2cccc12)c1ccncn1 — outcome? YES

Assay result, entry COc1ccc(-c2ccnc3c(C#N)c(Nc4ccccc4)nn23)cc1OC — outcome? NO
